Target: KRAS G12V (Homo sapiens, UniProt P01116+P62937, G12V)
Sequence (P01116 1-169 isoform P01116-2 G12V limits assumed, one chain of several): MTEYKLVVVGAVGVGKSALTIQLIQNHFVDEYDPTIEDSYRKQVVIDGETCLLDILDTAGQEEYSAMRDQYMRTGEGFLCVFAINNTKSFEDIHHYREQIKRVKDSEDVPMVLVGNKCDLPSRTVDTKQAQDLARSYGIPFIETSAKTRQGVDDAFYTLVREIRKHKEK
Test: Ras-Raf disruption / FRET / MOA assay (BRAF RBD)
Format: biochemical
Conditions: KRAS G12V FRET data IC50, Ras-Raf disruption, with Cyclophilin A
reportedProperty: IC50

CCn1c(-c2cccnc2[C@H](C)OC)c2c3cc(ccc31)-c1cc(O)cc(c1)C[C@H](NC(=O)[C@H](C(C)C)N(C)C(=O)CN(C)C(=O)[C@@H]1CN1C(C)C)C(=O)N1CCC[C@H](N1)C(=O)OCC(C)(C)C2 (stereo partly shown)    0.01 to 0.1 µM

Read the entry CCn1c(-c2cccnc2[C@H](C)OC)c2c3cc(ccc31)-c1cc(O)cc(c1)C[C@H](NC(=O)[C@H](C(C)C)N(C)C(=O)CNC(=O)[C@H]1CN1)C(=O)N1CCC[C@H](N1)C(=O)OCC(C)(C)C2 and write its reported IC50.
0.01 to 0.1 µM

Read the entry CCn1c(-c2cccnc2[C@H](C)OC)c2c3cc(ccc31)-c1cc(O)cc(c1)C[C@H](NC(=O)[C@H](C(C)C)N(C)C(=O)CN(C)C(=O)[C@@H]1N[C@@H]1C1CCC1)C(=O)N1CCC[C@H](N1)C(=O)OCC(C)(C)C2 and write its reported IC50.
0.01 to 0.1 µM

Read the entry CCn1c(-c2cccnc2[C@H](C)OC)c2c3cc(ccc31)-c1cc(O)cc(c1)C[C@H](NC(=O)[C@H](C(C)C)N(C)C(=O)C13CCC(CC1)N3C(=O)[C@H]1CN1)C(=O)N1CCC[C@H](N1)C(=O)OCC(C)(C)C2 and write its reported IC50.
0.1 to 1 µM

###

Molecular target: KRAS WT (Homo sapiens, UniProt P01116+P62937)
Sequence (P01116 1-169 isoform P01116-2 limits assumed): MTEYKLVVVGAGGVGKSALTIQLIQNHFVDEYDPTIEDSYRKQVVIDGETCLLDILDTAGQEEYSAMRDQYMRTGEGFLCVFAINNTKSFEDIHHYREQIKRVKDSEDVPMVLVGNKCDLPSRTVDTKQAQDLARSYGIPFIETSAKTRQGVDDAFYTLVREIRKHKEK
Sequence (P62937 whole entry): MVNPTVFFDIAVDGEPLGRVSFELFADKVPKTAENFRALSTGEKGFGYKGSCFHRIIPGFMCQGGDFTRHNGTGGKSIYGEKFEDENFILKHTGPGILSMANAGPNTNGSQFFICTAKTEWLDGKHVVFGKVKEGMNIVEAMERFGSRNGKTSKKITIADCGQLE
Test: Ras-Raf disruption / FRET / MOA assay (BRAF RBD)
Type: biochemical
Conditions: Ras-Raf disruption, with Cyclophilin A; read-out: KRAS WT FRET data IC50
pIC50: −log10 of the molar value.
reportedProperty: pIC50

CCn1c(-c2cccnc2[C@H](C)OC)c2c3cc(ccc31)-c1cc(O)cc(c1)C[C@H](NC(=O)[C@H](C(C)C)N(C)C(=O)[C@H]1C[C@H]3CC[C@@H](C1)N3C(=O)[C@H]1CN1)C(=O)N1CCC[C@H](N1)C(=O)OCC(C)(C)C2 (atropisomer, axis not shown)    7.00 to 8.00

Proceeding to the next molecule to report its pIC50.
Read the entry CCn1c(-c2cccnc2[C@H](C)OC)c2c3cc(ccc31)-c1cc(O)cc(c1)C[C@H](NC(=O)[C@H](C(C)C)N(C)C(=O)[C@H]1CCCN(C(=O)[C@@H]3CN3)C1)C(=O)N1CCC[C@H](N1)C(=O)OCC(C)(C)C2 and write its reported pIC50.
6.00 to 7.00

###

Target: KRAS G13C (Homo sapiens, UniProt P01116+P62937, G13C)
Sequence (P01116 1-169 isoform P01116-2 G13C limits assumed): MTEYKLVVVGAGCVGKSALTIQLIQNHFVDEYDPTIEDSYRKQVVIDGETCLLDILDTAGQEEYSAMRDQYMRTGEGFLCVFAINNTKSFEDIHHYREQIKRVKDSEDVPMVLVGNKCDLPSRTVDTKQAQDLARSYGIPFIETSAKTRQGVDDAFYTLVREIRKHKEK
Sequence (P62937 whole entry): as the sequence (P62937 whole entry) above
Test: Ras-Raf disruption / FRET / MOA assay (BRAF RBD)
Type: biochemical
Settings: KRAS G13C FRET data IC50, Ras-Raf disruption, with Cyclophilin A
pIC50: −log10 of the molar value.
reportedProperty: pIC50

CCn1c(-c2cccnc2[C@H](C)OC)c2c3cc(ccc31)-c1cc(O)cc(c1)C[C@H](NC(=O)[C@H](C(C)C)N(C)C(=O)CN(C)C(=O)[C@H]1CN1CCCN1CCCC1=O)C(=O)N1CCC[C@H](N1)C(=O)OCC(C)(C)C2 (some centres unmarked)    7.00 to 8.00

Read the entry CCn1c(-c2cc(N3CCN(C)CC3)cnc2[C@H](C)OC)c2c3cc(ccc31)-c1cc(O)cc(c1)C[C@H](NC(=O)[C@H](C1CCCC1)N(C)C(=O)CN(C)C(=O)[C@H]1CN1)C(=O)N1CCC[C@H](N1)C(=O)OCC(C)(C)C2 and write its reported pIC50.
> 8.00

###

Molecular target: NRAS WT (Homo sapiens, UniProt P01111+P62937)
Sequence (P01111 whole entry, one chain of several): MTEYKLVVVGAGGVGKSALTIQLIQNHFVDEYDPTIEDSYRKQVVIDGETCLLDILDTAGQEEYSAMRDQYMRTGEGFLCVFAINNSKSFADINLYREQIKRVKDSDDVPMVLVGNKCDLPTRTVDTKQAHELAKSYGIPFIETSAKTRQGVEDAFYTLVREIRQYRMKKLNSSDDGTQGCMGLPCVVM
Assay: Disruption of BRAF RBD interaction with Ras (FRET / MOA assay, with Cyclophilin A)
Format: biochemical
Settings: NRAS WT; read-out: NRAS WT FRET data IC50
pIC50: −log10 of the molar value.
Each item that follows carries a reported pIC50.

Below are worked cases with known answers.
CCn1c(-c2cc(N3CCN(C)CC3)cnc2[C@H](C)OC)c2c3cc(ccc31)-c1csc(n1)C[C@H](NC(=O)[C@H](C(C)C)N(C)C(=O)N1C[C@@H](C)N(C)C[C@H]1C)C(=O)N1CCC[C@H](N1)C(=O)OCC(C)(C)C2 (atropisomer, axis not shown) [Example A476]    6.00 to 7.00
CCn1c(-c2cccnc2[C@H](C)OC)c2c3cc(ccc31)-c1csc(n1)C[C@H](NC(=O)[C@H](C(C)C)N(C)C(=O)N1CCN(C(=O)CO)CC1)C(=O)N1CCC[C@H](N1)C(=O)OCC(C)(C)C2 (atropisomer, axis not shown) [Example A306]    7.00 to 8.00
CCn1c(-c2cccnc2[C@H](C)OC)c2c3cc(cnc31)-c1csc(n1)C[C@H](NC(=O)[C@H](C(C)C)N(C)C(=O)N1CC(OC)C1)C(=O)N1CCC[C@H](N1)C(=O)OCC(C)(C)C2 [Example A612]    6.00 to 7.00

Proceeding to the next compound to report its pIC50.
Read the entry CCn1c(-c2cccnc2[C@H](C)OC)c2c3cc(ccc31)-c1csc(n1)C[C@H](NC(=O)[C@H](C(C)C)N(C)C(=O)N1CC(C(C)(C)OC)C1)C(=O)N1CCC[C@H](N1)C(=O)OCC(C)(C)C2 (atropisomer, axis not shown) [Example A614] and write its reported pIC50.
6.00 to 7.00

###

Target: KRAS G12D (Homo sapiens, UniProt P01116+P62937, G12D)
Sequence (P01116 1-169 isoform P01116-2 G12D limits assumed): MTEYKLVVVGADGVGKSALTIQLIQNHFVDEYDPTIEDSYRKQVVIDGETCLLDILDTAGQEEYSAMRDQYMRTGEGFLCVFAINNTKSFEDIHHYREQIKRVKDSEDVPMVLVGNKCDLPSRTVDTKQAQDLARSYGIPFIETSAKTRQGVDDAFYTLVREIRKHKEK
Sequence (P62937 whole entry): as the sequence (P62937 whole entry) above
Assay: Disruption of BRAF RBD interaction with Ras (FRET / MOA assay, with Cyclophilin A)
Assay type: biochemical
Settings: KRAS G12D FRET data, IC50
reportedProperty: IC50

CCn1c(-c2cccnc2[C@H](C)OC)c2c3cc(ccc31)-c1cccc(c1)C[C@H](NC(=O)[C@H](C(C)C)N(C)C(=O)[C@H]1CCN(C(=O)CNC)C1)C(=O)N1CCC[C@H](N1)C(=O)OCC(C)(C)C2    1000 to 10000 nM
C=CC(=O)N1CC[C@H](C(=O)N(C)[C@H](C(=O)N[C@H]2C[C@H]3CN(CCO3)c3ccc4c(c3)c(c(-c3cccnc3[C@H](C)OC)n4CC)CC(C)(C)COC(=O)[C@@H]3CCCN(N3)C2=O)C(C)C)C1 (racemic)    > 10000 nM
CCn1c(-c2cccnc2[C@H](C)OC)c2c3cc(ccc31)-c1csc(n1)C[C@H](NC(=O)N1CCC[C@@H]1COC)C(=O)N1CCC[C@H](N1)C(=O)OCC(C)(C)C2 (atropisomer, axis not shown)    100 to 1000 nM

Proceeding to the next molecule to report its IC50.
Read the entry CCn1c(-c2cnccc2COC)c2c3cc(ccc31)-c1cc(O)cc(c1)C[C@H](NC(=O)[C@H](C(C)C)N(C)C(=O)[C@@H]1NC[C@@H]3C[C@@H]31)C(=O)N1CCC[C@H](N1)C(=O)OCC(C)(C)C2 and write its reported IC50.
100 to 1000 nM

###

Molecular target: NRAS Q61K (Homo sapiens, UniProt P01111+P62937, Q61K)
Sequence (P01111 whole entry Q61K, one chain of several): as the sequence (P01111 whole entry, one chain of several) above, with Q61K counted along it
Assay: Disruption of BRAF RBD interaction with Ras (FRET / MOA assay, with Cyclophilin A)
Assay type: biochemical
Details: NRAS Q61K; read-out: NRAS Q61K FRET data IC50
Each item that follows carries a reported IC50.

CCn1c(-c2cccnc2[C@H](C)OC)c2c3cc(ccc31)-c1csc(n1)C[C@H](NC(=O)[C@H](C(C)C)N(C)C(=O)N1CC(C#N)C1)C(=O)N1CCC[C@H](N1)C(=O)OCC(C)(C)C2 (atropisomer, axis not shown) [Example A382]    10 to 100 nM
CCn1c(-c2cccnc2[C@H](C)OC)c2c3cc(ccc31)-c1csc(n1)C[C@H](NC(=O)[C@H](C(C)C)N(C)C(=O)N1[C@@H](C)CN(C)C[C@@H]1C)C(=O)N1CCC[C@H](N1)C(=O)OCC(C)(C)C2 [Example A609]    100 to 1000 nM
CCn1c(-c2cccnc2[C@H](C)OC)c2c3cc(ccc31)-c1csc(n1)C[C@H](NC(=O)[C@H](C(C)C)N(C)C(=O)N1CCN(C(=O)CN(C)C)CC1)C(=O)N1CCC[C@H](N1)C(=O)OCC(C)(C)C2 (atropisomer, axis not shown) [Example A290]    10 to 100 nM
CO[C@@H](C)c1ncccc1-c1c2c3cc(ccc3n1CC(F)(F)F)-c1csc(n1)C[C@H](NC(=O)[C@H](C(C)C)N(C)C(=O)N1CCC3(CC1)CN(C(=O)/C=C/CF)C3)C(=O)N1CCCC(N1)C(=O)OCC(C)(C)C2 (stereo partly drawn) [Example A602]    10 to 100 nM
CCn1c(-c2cccnc2[C@H](C)OC)c2c3cc(ccc31)-c1csc(n1)C[C@H](NC(=O)[C@H](C(C)C)N1CCN(C)C1=O)C(=O)N1CCC[C@H](N1)C(=O)OCC(C)(C)C2 [Example A389]    100 to 1000 nM
CCn1c(-c2cccnc2[C@H](C)OC)c2c3cc(ccc31)-c1cc(O)cc(c1)C[C@H](NC(=O)[C@@H]1[C@H](C)CCN1C(C)=O)C(=O)N1CCC[C@H](N1)C(=O)OCC(C)(C)C2 [Example A144]    100 to 1000 nM

Read the entry CCn1c(-c2cccnc2[C@H](C)OC)c2c3cc(ccc31)-c1csc(n1)C[C@H](NC(=O)[C@H](C(C)C)N(C)C(=O)N1CC([C@@H](C)N(C)C)C1)C(=O)N1CCC[C@H](N1)C(=O)OCC(C)(C)C2 (atropisomer, axis not shown) [Example A458] and write its reported IC50.
10 to 100 nM

Read the entry C=CC(=O)N1CC[C@H](C(=O)N(C)[C@H](C(=O)N[C@H]2Cc3cc(O)cc(c3)-c3ccc4c(c3)c(c(-c3nccnc3COC)n4CC)CC(C)(C)COC(=O)[C@@H]3CCCN(N3)C2=O)C(C)C)C1 [Example A085] and write its reported IC50.
> 10000 nM

Read the entry CCn1c(-c2cccnc2[C@H](C)OC)c2c3cc(ccc31)-c1csc(n1)C[C@H](NC(=O)[C@H](C(C)C)N(C)C(=O)N1C3CC1CN(C)C3)C(=O)N1CCC[C@H](N1)C(=O)OCC(C)(C)C2 [Example A541] and write its reported IC50.
100 to 1000 nM
